Sourced from ChEMBL document CHEMBL1147384

# protocol: Cytotoxicity against human NSCLC-N6 cells
# Type: functional
# study conditions: read-out: ED50 (the source's name)
Catalogue of EC50 readings, one per entry.
parameter measured: EC50 (µg/mL)

INSERT INTO assay_data (compound, u, modifier, numeric_value) VALUES
  ('CC(=O)O[C@H]1C(=O)C2C1CC/C=C(\C)CC[C@@H]2[C@H](C)CCC=C(C)C (stereo partly specified) [ISOACETYLCORIACENONE]', 'µg/mL', '=', 6.82),
  ('Sc1ncnc2nc[nH]c12 [MERCAPTOPURINE ANHYDROUS]', 'µg/mL', '=', 0.76),
  ('CC(=O)OC[C@H]1/C(C=O)=C\C/C=C(\C)C[C@H](O)[C@@H]1[C@@H](C)CCC=C(C)C [HYDROXYACETYLDICTYOLAL]', 'µg/mL', '=', 10),
  ('CC(=O)O[C@@H]1C(=O)C2C1CC/C=C(\C)CC[C@@H]2[C@H](C)CCC=C(C)C (stereo partly specified) [ACETYLCORIACENONE]', 'µg/mL', '=', 5.4),
  ('CC(=O)O[C@H]1C[C@H](C)[C@H]2C[C@H]2C2=C(COC2=O)[C@H]1[C@H](C)CCC=C(C)C [ACETOXYCRENULIDE]', 'µg/mL', '>', 10),
  ('CC(=O)O/C=C1/CC/C=C(\C)C[C@@H]2OC(=O)[C@H]1[C@H]2[C@@H](C)CCC=C(C)C [DILOPHOLIDE]', 'µg/mL', '=', 3.3);
